molecular target: bovine serum albumin (BSA) (Bos taurus, UniProt P02769); construct: α-Amylase from porcine pancreas, bovine serum albumin (BSA); purchased SIGMA-Aldrich (Merck KGaA, Darmstadt, Germany); assay: Fluorescence quenching of serum albumin (Stern–Volmer); format: binding; settings: BSA 2 × 10^−6 M, PBS pH 7.4, emission 347 nm
Sequence (P02769 25-607): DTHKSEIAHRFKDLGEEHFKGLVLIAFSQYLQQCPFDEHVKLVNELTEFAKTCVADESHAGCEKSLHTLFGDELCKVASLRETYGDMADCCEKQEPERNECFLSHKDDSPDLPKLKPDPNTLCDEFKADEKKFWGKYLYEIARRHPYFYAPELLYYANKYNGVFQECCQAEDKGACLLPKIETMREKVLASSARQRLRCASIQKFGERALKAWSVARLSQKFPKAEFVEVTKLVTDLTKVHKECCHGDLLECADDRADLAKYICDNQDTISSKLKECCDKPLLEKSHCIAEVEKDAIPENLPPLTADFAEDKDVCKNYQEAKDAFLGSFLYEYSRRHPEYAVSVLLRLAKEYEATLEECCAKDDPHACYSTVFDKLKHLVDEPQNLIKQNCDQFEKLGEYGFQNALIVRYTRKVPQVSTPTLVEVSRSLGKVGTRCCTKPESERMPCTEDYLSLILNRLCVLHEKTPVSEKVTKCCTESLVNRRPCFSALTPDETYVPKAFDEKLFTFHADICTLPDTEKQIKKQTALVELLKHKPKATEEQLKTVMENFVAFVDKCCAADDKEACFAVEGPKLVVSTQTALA
Reported Stern–Volmer constant KSV values follow for various molecules
Output spec: scalar in M⁻¹, unitless text.

Task: Param readout= Stern–Volmer constant KSV; system= bovine serum albumin (BSA) (Bos taurus, UniProt P02769); entry= CO.CO.COc1cccc(C=N[C@H](C(=O)[O-])C(C)C)c1[O-].COc1cccc(C=N[C@H](C(=O)[O-])C(C)C)c1[O-].[O]=[V+2][O][V+2]=[O] [2b, [{V^VO(S-vanval)(CH3OH)}2(μ2-O)]] ; returns value.
Result: 248900

Task: Param readout= Stern–Volmer constant KSV; system= bovine serum albumin (BSA) (Bos taurus, UniProt P02769); entry= CC(C)[C@H]1N=Cc2ccccc2[O][V](=[O])([O][V]2(=[O])[O]C(=O)[C@@H](C(C)C)N=Cc3ccccc3[O]2)[O]C1=O.O (stereo partly shown) [1a] ; returns value.
Result: 80700

Task: Param readout= Stern–Volmer constant KSV; system= bovine serum albumin (BSA) (Bos taurus, UniProt P02769); entry= CC(C)[C@H](N=Cc1ccccc1[O-])C(=O)[O-].CC(C)[C@H](N=Cc1ccccc1[O-])C(=O)[O-].O.[O]=[V+2][O][V+2]=[O] [1b] ; returns value.
Result: 60100

---
Task: Param readout= Stern–Volmer constant KSV; system= bovine serum albumin (BSA) (Bos taurus, UniProt P02769); entry= CO.CO.COc1cccc2c1[O][V](=[O])([O][V]1(=[O])[O]C(=O)[C@@H](C(C)C)N=Cc3cccc(OC)c3[O]1)[O]C(=O)[C@@H](C(C)C)N=C2 (stereo partly shown) [2a, [{V^VO(R-vanval)(CH3OH)}2(μ2-O)]] ; returns value.
Result: 171800

Attribution: paper PMC8156053
